Biological target: KRAS-G12D protein (Homo sapiens, UniProt P01116, G12D)
Sequence (P01116 1-188 isoform P01116-2 G12D): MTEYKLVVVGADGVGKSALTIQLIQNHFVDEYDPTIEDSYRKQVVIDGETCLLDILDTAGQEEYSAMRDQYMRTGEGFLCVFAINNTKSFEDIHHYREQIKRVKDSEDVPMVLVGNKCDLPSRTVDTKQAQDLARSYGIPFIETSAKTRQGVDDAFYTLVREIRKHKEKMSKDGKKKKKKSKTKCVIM
Experiment: SOS-mediated nucleotide exchange assay (BODIPY-GDP / Tb-streptavidin TR-FRET)
Format: biochemical
*1 amine or outer side, *2 acyl side, *3 side chain or, on linkers, in order; H or OH if unused. Where a SMILES comes first, the peptide text is derived from it. Bridges are numbered along the chain shown (N, C = ends). [ ]: non-standard residue; d: D form. Ala(pyrimidin-5-yl) = N[C@@H](Cc1cncnc1)C(=O)O; X24 = O=C([C@H](Cc1ccncc1Cl)N[*:1])[*:2]; X11 = CC(C)(F)CC[C@H](N[*:1])C(=O)[*:2]; Phe(2-F) = N[C@@H](Cc1ccccc1F)C(=O)O; NMe3Pal = CN[C@@H](Cc1cccnc1)C(=O)O; X1 = O=C(C12CC(CN[*:1])(C1)C2)[*:2]; Ala(cPr) = N[C@@H](CC1CC1)C(=O)O; NMeF = CN[C@@H](Cc1ccccc1)C(=O)O; PhLac = O=C(O)[C@@H](O)Cc1ccccc1; 3Pal = N[C@@H](Cc1cccnc1)C(=O)O; d3Pal = N[C@H](Cc1cccnc1)C(=O)O; Cba = N[C@@H](CC1CCC1)C(=O)O; αMeC = C[C@](N)(CS)C(=O)O; NMeA = CN[C@@H](C)C(=O)O; Nle = CCCC[C@H](N)C(=O)O
REPORTED_ENDPOINT: EC50 (nM)
Unit nM implied. Number only.

Dear colleague, I am looking for the recorded EC50 of the following compound: CCCC[C@@H]1NC(=O)[C@H](Cc2ccccc2F)NC(=O)[C@H](CC2CCC2)NC(=O)[C@@H](Cc2cccnc2)NC(=O)[C@H](CCCNC(=N)N)NC(=O)[C@H](Cc2ccccc2)NC(=O)C23CC(CNC(=O)[C@H](Cc4cccnc4)N(C)C1=O)(C2)C3 [compound 103] (cyclo(FR[d3Pal][Cba][Phe(2-F)][Nle][NMe3Pal][X1])) 3.19

Name the recorded EC50 for C[C@H]1C(=O)N[C@@H](Cc2cncnc2)C(=O)N[C@@H](CC2CC2)C(=O)N[C@@H](Cc2ccncc2Cl)C(=O)N[C@@H](CCC(C)(C)F)C(=O)N(C)[C@@H](Cc2ccccc2)C(=O)NCC23CC(C2)(C3)C(=O)O[C@@H](Cc2ccccc2)C(=O)N1C [compound 299] (cyclo([Ala(cPr)][X24][X11][NMeF][X1][PhLac][NMeA][Ala(pyrimidin-5-yl)])) . 6.3

Reported EC50 for CCCC[C@@H]1NC(=O)[C@H](Cc2cccnc2)NC(=O)[C@H](C)N(C)C(=O)[C@H](Cc2ccccc2)NC(=O)CSC[C@@](C)(C(N)=O)NC(=O)[C@H](Cc2ccccc2)N(C)C(=O)[C@H](CCCC)NC(=O)[C@H](Cc2ccccc2F)NC1=O [compound 159] ({CH2CO}-F[NMeA][3Pal][Nle][Phe(2-F)][Nle][NMeF][αMeC]-NH2; thioether N-8) : what is it? 110

###

Exercise: state measured pEC50 for each of the compounds provided.
Target: KRAS-G12D protein (Homo sapiens, UniProt P01116, G12D)
Test: SOS-mediated nucleotide exchange assay (BODIPY-GDP / Tb-streptavidin TR-FRET)
Assay type: biochemical
*1 amine or outer side, *2 acyl side, *3 side chain or, on linkers, in order; H or OH if unused. Where a SMILES comes first, the peptide text is derived from it. [ ]: non-standard residue; d: D form. NMeNva(5-imidazol-1-yl) = CN[C@@H](CCCn1ccnc1)C(=O)O; Ala(pyrimidin-5-yl) = N[C@@H](Cc1cncnc1)C(=O)O; X2 = O=C([C@H](Cc1ccccc1F)O[*:1])[*:2]; Phe(2-F) = N[C@@H](Cc1ccccc1F)C(=O)O; NMe3Pal = CN[C@@H](Cc1cccnc1)C(=O)O; X1 = O=C(C12CC(CN[*:1])(C1)C2)[*:2]; PhLac = O=C(O)[C@@H](O)Cc1ccccc1; 3Pal = N[C@@H](Cc1cccnc1)C(=O)O; NMeAbu = CC[C@H](NC)C(=O)O; Nle = CCCC[C@H](N)C(=O)O
Reminder that pEC50 is minus the log10 of a molar concentration.

// pEC50 lookup, key: CCCC[C@@H]1NC(=O)[C@H](Cc2cncnc2)NC(=O)[C@H](CCCn2ccnc2)N(C)C(=O)[C@H](Cc2ccccc2)OC(=O)C23CC(CNC(=O)[C@H](Cc4cccnc4)N(C)C(=O)[C@H](CCCC)NC(=O)[C@H](Cc4ccccc4F)OC1=O)(C2)C3 [compound 246] (cyclo([NMe3Pal][X1][PhLac][NMeNva(5-imidazol-1-yl)][Ala(pyrimidin-5-yl)][Nle][X2][Nle])) 5.94

// lookup pEC50 for CCCC[C@@H]1NC(=O)[C@H](Cc2cccnc2)NC(=O)[C@H](CC)N(C)C(=O)[C@H](Cc2ccccc2)OC(=O)C23CC(CNC(=O)[C@H](Cc4cccnc4)N(C)C(=O)[C@H](CCCC)NC(=O)[C@H](Cc4ccccc4F)NC1=O)(C2)C3 [compound 404] (cyclo([3Pal][Nle][Phe(2-F)][Nle][NMe3Pal][X1][PhLac][NMeAbu])) 7.54

Reported pEC50, compound `CCCC[C@@H]1NC(=O)[C@H](Cc2ccc(O)cc2)NC(=O)[C@H](CC(C)C)NC(=O)[C@H](Cc2ccc(O)cc2)NC(=O)[C@H](CCCNC(=N)N)NC(=O)[C@H](Cc2ccccc2)NC(=O)CSC[C@@H](C(N)=O)NC(=O)[C@H](Cc2ccccc2)N(C)C1=O` : ____ 6.04
